Just for reference, patent US20230416341A1 is where these values come from.

# subject_of_test: human α-thrombin (Haematologic Technologies) (human), P00734
# experiment: thrombin inhibition; sulfated at Y36
# condition_parameters: chains peptide; modification not given
quantity_kind: pKi
// pKi: -log10(molar conc.)

**Q:** Please give the measured pKi for this binder: SEQ ID No:2 (MDL-1) Y36 (sulfated at Y36) (peptide) YPERDSAKDGNEEQERALPVNVQERGEVADADYDDYDEEGTTPTVDPTAQTARPRLQGNQS
**A:** 7.75
